# SUBJECT OF TEST: BRD3 (BD1) (Homo sapiens)
# Construct: a bromodomain of BRD2 (BD1) and BRD3 (BD1), one of the BRD protein family; GST
# Sequence (Q15059 34-140 limits assumed, species assumed): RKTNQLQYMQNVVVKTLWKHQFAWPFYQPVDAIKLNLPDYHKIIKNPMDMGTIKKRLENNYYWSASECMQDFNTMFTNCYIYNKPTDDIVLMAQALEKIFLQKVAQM
# ASSAY: Binding inhibitory effect on BRD3 protein (same manner as Experimental Example 1-1)
READOUT: IC50 (nM)

Some solved entries appear below for comparison.
Param readout = IC50; param system = BRD3 (BD1) (Homo sapiens); param query = CCCNCc1ccc(-c2ccccc2-c2cccc3c2CN(C)C3=O)o1 ; response: value
4510

Please tell me: IC50 of CNC(=O)C1(C)CN(Cc2ccc(-c3ccccc3-c3cccc4c3CN(C)C4=O)o2)CCC1O (centres unmarked) , system BRD3 (BD1) (Homo sapiens)?
1300

Form field: IC50 recorded for CN1Cc2c(cccc2-c2ccccc2-c2ccc(CNCc3ccccc3)o2)C1=O with BRD3 (BD1) (Homo sapiens) (enter value)
3610

# value lookup — system BRD3 (BD1) (Homo sapiens), readout IC50, item CN1Cc2c(cccc2-c2ccccc2-c2ccc(CN3CCC4(CC3)C(=O)NCC4c3ccc(F)cc3)o2)C1=O (centres unmarked)
1190

Any idea what IC50 came out for CCC1(C(=O)NC)CCCN(Cc2oc(-c3ccccc3-c3cccc4c3CN(C)C4=O)cc2C)C1 (centres unmarked) on BRD3 (BD1) (Homo sapiens)?
3960

a. CN1Cc2c(cccc2-c2ccccc2-c2ccc(CNCCS(C)(=O)=O)o2)C1=O
b. CCNCc1ccc(-c2ccccc2-c2cccc3c2CN(C)C3=O)o1
c. CN(C)CCNCc1ccc(-c2ccccc2-c2cccc3c2CN(C)C3=O)o1
Provide the items ranked by increasing IC50. Returns: the labels arranged in the requested order.
b, c, a

----------
# Tested on: retinal degeneration mouse model
# ASSAY: Electroretinogram (ERG) in blue LED-induced retinal degeneration mouse model
# Type: in vivo, albino BALB/c mice
# PARTICULARS: single intravitreal injection 1 hour after LED exposure, compound 24 nM, Com. Ex. 4 25 mg/kg
READOUT: Wavelength enhanced multiple compared to normal saline-treated group, b-wave

Field: example entries. Status: answers known.
Requested field: Wavelength enhanced multiple compared to normal saline-treated group, b-wave. Item: CN1Cc2c(cccc2-c2ccccc2-c2ccc(CNCc3cnn(C)c3)o2)C1=O
2.03

Sample CNC(=O)CC1C(=O)NCCN1Cc1oc(-c2ccccc2-c2cccc3c2CN(C)C3=O)cc1C (stereo not drawn) — what was its Wavelength enhanced multiple compared to normal saline-treated group, b-wave?
1.38

Need Wavelength enhanced multiple compared to normal saline-treated group, b-wave, item CCC1(C(=O)NC)CCCN(Cc2oc(-c3ccccc3-c3cccc4c3CN(C)C4=O)cc2C)C1 (stereo not drawn)
1.43

I have this compound here, CN1Cc2c(cccc2-c2ccccc2-c2ccc(CN3CCOCC3)o2)C1=O , and I need its recorded Wavelength enhanced multiple compared to normal saline-treated group, b-wave.
1.36

# lookup: Wavelength enhanced multiple compared to normal saline-treated group, b-wave of CN1Cc2c(cccc2-c2ccccc2-c2ccc(COCN3CCC(F)(F)CC3)o2)C1=O
1.31

1. CNC(=O)C1(C)CN(Cc2ccc(-c3ccccc3-c3cccc4c3CN(C)C4=O)o2)CCC1O (stereo not drawn)
2. CNC(=O)C1(Cc2ccc(F)cc2)CCN(Cc2oc(-c3ccccc3-c3cccc4c3CN(C)C4=O)cc2C)CC1
Pick the one with the larger Wavelength enhanced multiple compared to normal saline-treated group, b-wave: 1 vs 2 Pick one; state its label.
2

I. CNC(=O)C1(Cc2ccc(F)cc2)CCN(Cc2ccc(-c3ccccc3-c3cccc4c3CN(C)C4=O)o2)CC1
II. CNC(=O)C1(Cc2ccccc2)CCCN1Cc1ccc(-c2ccccc2-c2cccc3c2CN(C)C3=O)o1 (stereo not drawn)
# query: argmin of Wavelength enhanced multiple compared to normal saline-treated group, b-wave over I and II Bench note: the answer is the label of the chosen record.
II
